Sourced from patent EP3539964A1

# ASSAY_SUMMARY: Cytotoxicity using CCK-8 kit
# Type: cell-based
# APPLIED_CONDITIONS: 72 hours after addition, concentration of 60 µM; read-out: cell survival rate
# Method: When base acetamide glycerin ether molecules should is to be used as novel biomaterials in the field of gene therapy, they must have good biocompatibility. Two base acetamide glycerin ether compounds (DOCA and DOTA) were studied for cytotoxicity using CCK-8 kit. […] After 72 hours of addition of the base acetamide glycerin ether compound at a concentration of 60 µM, the cell survival rate was close to 100%, indicating good biocompatibility (Fig. 6).
Consider the following compounds; for each one, report its viability at 72 h, 60 µM.

### Prompt What value of viability at 72 h, 60 µM has been recorded for this entry: CCCCCCCC/C=C\CCCCCCCCOCC(CNC(=O)Cn1cc(C)c(=O)[nH]c1=O)OCCCCCCCC/C=C\CCCCCCCC (centres unmarked) [DNTA]
### Response ~100%

### Prompt What value of viability at 72 h, 60 µM has been recorded for this entry: CCCCCCCC/C=C\CCCCCCCCOCC(CNC(=O)Cn1ccc(N)nc1=O)OCCCCCCCC/C=C\CCCCCCCC (centres unmarked) [DNCA]
### Response ~100%
